test description: first-order primary biodegradation rate constant k (sorption-corrected, fDis-corrected) (d-1); higher = faster biodegradation
assay conditions: river segment: Switzerland (CH) U_Pris; incubation temperature 17 °C
first-order primary biodegradation rate constant k values for the compounds below.
recorded metric: first-order primary biodegradation rate constant k

compound | quantitative readout
CCOc1ccccc1OCCN[C@H](C)Cc1ccc(OC)c(S(N)(=O)=O)c1 | 0.0624
COC(=O)c1ccc(O)cc1 | 0.0832
O=S(=O)(O)NC1CCCCC1 [Cyclamate] | 0.0988
Cc1ccc(-c2nc3ccc(C)cn3c2CC(=O)N(C)C)cc1 | 0.135
C#CCN(C)Cc1ccccc1 | 0.768
CCN(CC)CC(=O)Nc1c(C)cccc1C | 0.0138
CCCCc1nc(Cl)c(CO)n1Cc1ccc(-c2ccccc2-c2nnn[nH]2)cc1 | 0.358
CCN1CCCC1CNC(=O)c1cc(S(=O)(=O)CC)c(N)cc1OC (stereo not drawn) [Amisulpride] | 0.0314
Cc1ccc2n[nH]nc2c1 | 0.282
CCc1cccc(C)c1N(C(=O)CCl)C(C)COC (stereo not drawn) | 0.0285
CC1(C(=O)Nc2ccc(O)c(Cl)c2Cl)CCCCC1 | 0.988
Cc1cc(C)nc(NS(=O)(=O)c2ccc(N)cc2)n1 | 0.0819
Cn1c(=O)c2c(ncn2C)n(C)c1=O | 0.69

* * *

Item-by-item account of first-order primary biodegradation rate constant k
test description: first-order primary biodegradation rate constant k (sorption-corrected, fDis-corrected) (d-1); higher = faster biodegradation
assay conditions: river segment: Greece (EL) G_Contam; incubation temperature 19 °C
recorded metric: first-order primary biodegradation rate constant k

compound | quantitative readout
CC(C)(Oc1ccc(CCNC(=O)c2ccc(Cl)cc2)cc1)C(=O)O [Bezafibrate] | 0.184
CCNc1nc(NC(C)(C)C)nc(SC)n1 | 0.247
CN(C)C(=O)Nc1ccc(Cl)c(Cl)c1 | 0.119
CCOc1nc2cccc(C(=O)O)c2n1Cc1ccc(-c2ccccc2-c2nnn[nH]2)cc1 | 0.398
CN(C)CCCC1(c2ccc(F)cc2)OCc2cc(C#N)ccc21 (stereo not given) | 8.04
CC1(C)C[C@@H]1C(=O)N/C(=C\CCCCSC[C@H](N)C(=O)O)C(=O)O | 5.93
CC(C)NCC(O)COc1ccc(COCCOC(C)C)cc1 (stereo not given) | 0.37
Cc1cc(NS(=O)(=O)c2ccc(N)cc2)no1 | 0.0964
CC(C)(C#N)c1cc(Cn2cncn2)cc(C(C)(C)C#N)c1 | 0.658
NC(=O)c1cn(Cc2c(F)cccc2F)nn1 [Rufinamide] | 0.652
Nc1ccc(S(=O)(=O)Nc2nccs2)cc1 | 1.63
Cc1ccc(C(C)NC(=O)[C@@H](NC(=O)OC(C)C)C(C)C)cc1 (stereo not given in full) | 0.16
CCOC(=O)C1CC(=O)C(=C(O)C2CC2)C(=O)C1 (stereo not given) | 0.0205
CCOC(=O)c1ccc(O)cc1 | 0.114
CC(C)NCC(O)COc1cccc2ccccc12 (stereo not given) | 0.0886
COc1cc(Cc2cnc(N)nc2N)cc(OC)c1OC | 0.993
CC(C(=O)O)c1cccc(C(=O)c2ccccc2)c1 (stereo not given) | 0.0301
C#CCN(C)Cc1ccccc1 | 0.773
COc1ccc(NC(=O)N(C)C)cc1Cl | 0.0278
COc1ccc(NS(=O)(=O)c2ccc(N)cc2)nn1 | 0.396
CCCCC(=O)N(Cc1ccc(-c2ccccc2-c2nnn[nH]2)cc1)[C@H](C(=O)O)C(C)C | 0.418
Cc1cc(C)nc(NS(=O)(=O)c2ccc(N)cc2)n1 | 0.0667
CC(C)NCC(O)COc1ccc(CC(N)=O)cc1 (stereo not given) | 0.342
Cc1ccc(NC(=O)N(C)C)cc1Cl | 0.0396
CC(=O)Nc1ccc(O)cc1 | 3.16
CC(C)(C)C(=O)C(Oc1ccc(Cl)cc1)n1ccnc1 (stereo not given) | 9.42
O=[N+]([O-])c1ccc(Cc2ccncc2)cc1 | 1.68
CC(C)N(C(=O)CCl)c1ccccc1 | 0.271
CC(C)NCC(O)c1ccc(NS(C)(=O)=O)cc1 (stereo not given) | 0.107
O=C(NCC1CCCCN1)c1cc(OCC(F)(F)F)ccc1OCC(F)(F)F (stereo not given) [Flecainide] | 0.0658
